# System: SK-MEL-2
# measurementProtocol: NCI tumour cell line growth inhibition, 48 h
Active and inactive are the calls of the source. Rule as the data show it: active = GI50 up to about 1.1 µM and inactive = higher.
Response enum: 1 (yes) for active, 0 (no) for inactive

{"compound": "CCOC(=O)n1c2ccccc2c2c(O)c(OC)c3c(c21)C(=O)NC3=O", "label": "0 (no)"}

Note: attention shifts to another entry.
Record lookup: outcome of this test for N=C(N)NS(=O)(=O)c1ccc(NC(=O)c2cccc3cc4ccccc4nc23)cc1 ?
0 (no)

---

# Tested on: UACC-62
# measurementProtocol: NCI tumour cell line growth inhibition, 48 h
Active and inactive are the calls of the source. No stated cut-off is given here; in the data, active = GI50 up to about 1.1 µM and inactive = higher. Residues, ends and D or L forms follow the SMILES beside them. *: point of attachment. Boc = CC(C)(C)OC(=O)*
Each record here notes measured GI50.

Sample records with GI50:
{"compound": "COC(=O)C(Cc1c[nH]c2ccccc12)NC(=O)C(Cc1c[nH]c2ccccc12)NC(=O)C(Cc1c[nH]c2ccccc12)NC(=O)C(Cc1c[nH]c2ccccc12)NC(=O)OC(C)(C)C (centres undefined) (Boc-WWWW-OMe; configuration not given here)", "endpointLabel": "GI50", "measuredValue": "15.6 µM (inactive)"}
{"compound": "Cc1noc2c1C(=O)CCC2", "endpointLabel": "GI50", "measuredValue": "> 100 µM (inactive)"}
{"compound": "Cc1ccc(/N=N/c2c(C)nn(C(=O)CC(=O)Nc3ccccc3)c2C)cc1C", "endpointLabel": "GI50", "measuredValue": "> 100 µM (inactive)"}

Reported GI50 ( Cc1c(-c2nc(N)c(C#N)c(N)c2C#N)c(=O)oc2ccccc12 ) = > 100 µM (inactive)

---

# System: NCI-H460
# measurementProtocol: NCI tumour cell line growth inhibition, 48 h
Active and inactive are the calls of the source. Rule as the data show it: active = GI50 up to about 1.1 µM and inactive = higher.
Response enum: yes for active, no for inactive

Consider the worked cases shown below.
{"compound": "Cn1c(=O)sc2cc(C(=S)N3CCC(Cc4ccccc4)CC3)ccc21", "label": "no"}
{"compound": "CSC(=S)N/N=C(\\C)c1cccc(C)n1", "label": "yes"}

Record lookup: outcome of this test for Cc1cccc(-c2cc(=O)c3cc(C)c(C)c(C(=O)O)c3o2)c1 ?
no

Record lookup: outcome of this test for COc1ccc(CCCNC(=O)Cc2ccccc2CO)cc1OC ?
no

Record lookup: outcome of this test for O=C1NC(=O)c2c1n(Cc1ccccc1)c(=O)n2Cc1ccccc1 ?
no

Record lookup: outcome of this test for N#CN1CC[C@@H]2CC3(CCC2C1)OCCO3 (stereo partly specified) ?
no

Record lookup: outcome of this test for COc1ccc(C2C(C(=O)O)=C(CO)Oc3cc4c(cc32)OCO4)c(OC)c1 (stereo unspecified) ?
no

---

# Tested on: OVCAR-4
# measurementProtocol: NCI tumour cell line growth inhibition, 48 h
The source made the active and inactive calls. Cut-off read from the data, not from the text of the source: active = GI50 up to about 1.1 µM and inactive = higher.
endpointLabel: GI50

Sample records with GI50:
{"compound": "CN(C)c1ccc(C=C2C(=O)NC(=S)NC2=O)c2ccccc12", "GI50": "> 100 µM (inactive)"}
{"compound": "C=C1C(=O)OC2/C=C(\\C)CC(O)/C=C(/CO)CC(OC(=O)/C(C)=C/C)C12 (stereo not given)", "GI50": "117 µM (inactive)"}

Measured GI50 (OVCAR-4), entry NC(=O)c1c[se]c(C2OC(CO)C(O)C2O)n1 (stereo not given) : 3.99 µM (inactive)

Measured GI50 (OVCAR-4), entry [O-][Cl+3]([O-])([O-])O.c1ccc(/N=c2\snc(-c3ccccc3)s2)cc1 : > 100 µM (inactive)

Measured GI50 (OVCAR-4), entry O=[N+]([O-])/C=C/c1cc2ccc3ccccc3c2[nH]1 : 1.98 µM (inactive)

Measured GI50 (OVCAR-4), entry O=C(CC(=O)Nc1ccccc1Cl)NNC(Sc1ccccc1)c1cc(/N=N/c2ccc(Br)cc2)ccc1O (stereo not given) : 1.86 µM (inactive)

Measured GI50 (OVCAR-4), entry COc1ccc(OC)c(C2CCCc3c2cnc2nc(N)nc(N)c32)c1 (stereo not given) : > 100 µM (inactive)

Measured GI50 (OVCAR-4), entry CC(=O)OCC1OC(O[C@@H]2C[C@H]3C(C)(C)[C@@H](OC(C)=O)CC[C@]3(C)[C@H]3CC[C@]45C[C@]4(CC[C@H]5[C@@H](C)C[C@@H](O)[C@H](O)C(C)(C)F)[C@@]32C)C(O)C(O)C1O (stereo not given in full) : 65.9 µM (inactive)

Measured GI50 (OVCAR-4), entry O=C(CN1C(=O)c2ccccc2C1=O)OCC1CCCN2CCCCC12 (stereo not given) : > 100 µM (inactive)

Measured GI50 (OVCAR-4), entry CN(C(=O)c1cccs1)C(=S)N1CCN(c2ccccc2)CC1 : > 100 µM (inactive)

Measured GI50 (OVCAR-4), entry CC(=O)O[C@H]1C(=O)[C@@]2(C)C(C(OC(=O)c3ccccc3)[C@]3(O)CC(OC(=O)[C@H](OC(=O)CCC(=O)O)C(NC(=O)c4ccccc4)c4ccccc4)C(C)=C1C3(C)C)C1(OC(C)=O)COC1C[C@@H]2OC(=O)CCC(=O)O (stereo not given in full) : > 79.4 µM (inactive)

Measured GI50 (OVCAR-4), entry Nc1c(-c2nc3ccccc3[nH]2)sc(=S)n1-c1ccccc1 : > 100 µM (inactive)

Measured GI50 (OVCAR-4), entry O=c1cc(NCC2CCCCC2)[nH]c(=O)[nH]1 : > 100 µM (inactive)

---

# Test system: MOLT-4
# measurementProtocol: NCI tumour cell line growth inhibition, 48 h
Counter-ions that a name gives are not always drawn. Activity calls are given as the source filed them. No stated cut-off is given here; in the data, active = GI50 up to about 1.1 µM and inactive = higher.
Each record here notes measured GI50.

Sample records with GI50:
{"compound": "OC1C2CCCCN2C[C@@H](O)[C@H]1O (stereo not given in full)", "GI50": "> 100 µM (inactive)"}
{"compound": "NCCCCN [PUTRESCINE HYDROCHLORIDE]", "GI50": "> 100 µM (inactive)"}
{"compound": "NCCCn1c2ccccc2c2c3c(c4c(c21)CCC(O)CC4)C(=O)NC3=O (stereo not given)", "GI50": "1.53 µM (inactive)"}
{"compound": "Nc1ccc(S(=O)(=O)c2ccc(NC(=O)c3cccnc3)cc2)cc1", "GI50": "57.5 µM (inactive)"}
{"compound": "Cc1cc(S(=O)(=O)Nc2nc(Nc3ccc4ccccc4c3)n[nH]2)c(S)cc1Cl", "GI50": "> 100 µM (inactive)"}

Reported GI50 ( COc1ccc(/C=N/NC(=O)c2ccccc2Nc2ccccc2C(=O)N/N=C/c2ccc(OC)cc2)cc1 ) = > 100 µM (inactive)

Reported GI50 ( C=CCCC(OCOCCOC)c1cc(C)c(O[Si](C)(C)C(C)(C)C)c(C)c1 (stereo not given) ) = 4.4 µM (inactive)

Reported GI50 ( COc1cc(Nc2nc3c(N)cc(C(F)(F)F)cc3nc2-c2ccccc2)cc(OC)c1OC ) = > 100 µM (inactive)

Reported GI50 ( C=CCC(C)C12CCNC(Cc3ccc(O)cc31)C2C (stereo not given) ) = 84.5 µM (inactive)

Reported GI50 ( CC1(C)OC(=O)C(c2ccsc2)C(=O)O1 ) = > 100 µM (inactive)

Reported GI50 ( O=C(CC(=O)Nc1ccccc1Cl)NNC(Sc1ccccc1)c1cc(/N=N/c2ccc(Br)cc2)ccc1O (stereo not given) ) = 0.321 µM (active)

Reported GI50 ( COC(=O)CCC1=NOC(CC2CC(CCC(=O)OC)=NO2)C1 (stereo not given) ) = > 100 µM (inactive)

---

# Test system: BT-549
# measurementProtocol: NCI tumour cell line growth inhibition, 48 h
Calls of active or inactive are those of the source. No stated cut-off is given here; in the data, active = GI50 up to about 1.1 µM and inactive = higher.
Response enum: t (active), f (inactive)

Consider the worked cases shown below.
{"molecule": "CN(CCN(C)Cc1ccc(Cl)c(Cl)c1)CCN1CCCC1", "target": "BT-549", "label": "f"}
{"molecule": "COc1ccc(C2c3cc4c(c(OC)c3CC3OCC(=O)C32)OCO4)cc1OC (stereo not drawn)", "target": "BT-549", "label": "t"}
{"molecule": "O=[N+]([O-])c1c(Br)cc(Br)c2c1Nc1c(ccc(Cl)c1Cl)S2", "target": "BT-549", "label": "f"}
{"molecule": "O=C(Cn1c(=O)oc2ccc(C(=O)c3ccccc3Cl)cc21)c1ccc([N+](=O)[O-])cc1", "target": "BT-549", "label": "f"}
{"molecule": "CN(C)CCCN1c2ccccc2CCc2ccc([N+](=O)[O-])cc21", "target": "BT-549", "label": "f"}

Record lookup: outcome of this test for CCN(CC)CCSc1c2cc(OC)ccc2nc2ccc(OC)cc12 ?
f

Record lookup: outcome of this test for O=c1cc(NCC2CCCCC2)[nH]c(=O)[nH]1 ?
f

Record lookup: outcome of this test for COc1cc(OC)nc(-n2c(N)c(C#N)c3ccc([N+](=O)[O-])cc3c2=O)n1 ?
f
